All figures here come from ChEMBL document CHEMBL1201862.

System: NCI/ADR-RES
assay.name: NCI tumour cell line growth inhibition, 48 h
Activity calls are given as the source filed them. Cut-off read from the data, not from the text of the source: active = GI50 up to about 1.1 µM and inactive = higher.
assay.readout: GI50

Worked examples, 8 molecules total:
{"molecule": "CCN(CC)c1ccc(/C=c2\\nc(-c3ccccc3)n3c2nc2ccccc23)cc1", "GI50": "3.98 µM (inactive)"}
{"molecule": "CCOc1ccc(/N=C/c2ccnc3ccccc23)cc1", "GI50": "35.9 µM (inactive)"}
{"molecule": "Nc1nc(N)c2cc(Sc3ccc4ccccc4c3)ccc2n1", "GI50": "1.07 µM (active)"}
{"molecule": "C=CC(OC(C)=O)c1ccc(OC(C)=O)cc1 (centres undefined)", "GI50": "7.01 µM (inactive)"}
{"molecule": "CC(C)[S+]1C2=C(CC(C)(C)CC2=O)[N-]c2ccccc21 (centres undefined)", "GI50": "> 100 µM (inactive)"}
{"molecule": "CC(=O)OCC1OC(n2nc(Cc3ccccc3)c(=S)[nH]c2=S)C(OC(C)=O)C(OC(C)=O)C1OC(C)=O (centres undefined)", "GI50": "> 100 µM (inactive)"}
{"molecule": "CC(OCc1ccccc1)C(NC(=O)C1CSSCC(NC(=O)C(Cc2ccccc2)NC(=O)OCc2ccccc2)C(=O)NC(Cc2ccccc2)C(=O)NC(Cc2cn(C=O)c3ccccc23)C(=O)NC(CCCCNC(=O)OCc2ccccc2)C(=O)NC(C(C)OCc2ccccc2)C(=O)N1)C(N)=O (centres undefined)", "GI50": "> 100 µM (inactive)"}
{"molecule": "CCCCCCN(CCCCCC)CCC(=O)c1ccc2cc(Br)c3ccccc3c2c1", "GI50": "48.5 µM (inactive)"}

Give GI50 for C=C1C(=O)CC2C(=O)C(C)(O)CC/C=C(\C)C(=O)CC12 (centres undefined) tested on NCI/ADR-RES.
38.5 µM (inactive)
